target: T1, Fc; experiment: phage ELISA
T1 construct: Control antigen of the phage ELISA
test.readout: OD490
One number for each entry.

Q: Tell me the measured OD490 of CD9 8A scFv monoclonal phage antibody (scFv, V domains shown, also called 8A3) VH: QVQLVQSGAEVKKPGASVKLSCKASGYTFSSYWMHWVRQAPGQRLEWMGEINPGNGHTNYNEKFKSRVTITVGKSASTAYMELSSLRSEDTAVYYCAREGVSAAGGLDHWGQGTQITVSS VL: DIQMTQSPSSLSVSTGARVTITCRASQGISNYLAWYQQKPGKAPKLLIYAASTLQSGVPSRFSGSGSGTDFTLTISSLQPEDFATYYCQQLNSYPLTFGGGTKVEIK , please.
A: 0.088
